assay: Mouse body weight in the skin abscess infection model; assay type: in vivo; settings: day 0 = 100, Day 1, replicate 1
No end group written: not given here.
Property label: Mouse body weight, normalized to the weight at the beginning of the experiment
Quick one: just the number, no unit, thanks!

input: // query Mouse body weight, normalized to the weight at the beginning of the experiment value for entry FLPLLWRVASGVF-NH2 [VT]
output: 95

***
input: Fill in the blank: the reported Mouse body weight, normalized to the weight at the beginning of the experiment of FLGAIGNVLKSIL-NH2 [TV] is ____.
output: 90

input: # lookup: Mouse body weight, normalized to the weight at the beginning of the experiment of FLGALWNVAKSVF-NH2 [VmCT1, reference compound]
output: 90

input: Need Mouse body weight, normalized to the weight at the beginning of the experiment, item FLPLIGRVLSGIL-NH2 [Temporin A, reference compound]
output: 95

---

assay: Mouse body weight in the skin abscess infection model; format: in vivo; settings: day 0 = 100, Day 2, replicate 2
No end group written: not given here.
Property label: Mouse body weight, normalized to the weight at the beginning of the experiment

// known answers, use as guide
input: Mouse body weight, normalized to the weight at the beginning of the experiment for FLPLLWRVASGVF-NH2 [VT] ?
output: 105

input: Endpoint output: Mouse body weight, normalized to the weight at the beginning of the experiment of FLGAIGNVLKSIL-NH2 [TV] . Value?
output: 95

---
input: Would you kindly share the measured Mouse body weight, normalized to the weight at the beginning of the experiment for FLPLIGRVLSGIL-NH2 [Temporin A, reference compound] ?
output: 100

---

We begin with a simple list: items and their reported Peptide remaining.
test: Resistance to proteolytic degradation in fetal bovine serum; type: in vitro ADME; conditions: 25% fetal bovine serum in water, 37 °C, LC peak area, time 0 = 100; 4 h; replicate 3
No end group written: not given here.
Answer with a bare number; do not write a unit.

Past entries and their recorded results:
input: Could you share which Peptide remaining value was measured for FLPLIGRVLSGIL-NH2 [Temporin A, reference compound] ?
output: 0

input: Returns the measured Peptide remaining for the input substance. Input: GLLKRIKTLL-NH2 [Anoplin, reference compound]
output: 0.0

input: What does the data say about its Peptide remaining? Entry: FLPLLWRVASGVF-NH2 [VT]
output: 0

Lab note: next substance to report on.
input: So what's the measured Peptide remaining for this one? GLGALLNVIKSGL-NH2 [AV]
output: 0.0

---

test system: human erythrocytes; assay: Hemolytic activity; type: cell-based; details: 0.1–100 μmol L^−1 in PBS, room temperature, 1 h, absorbance 405 nm
No end group written: not given here.
# Hemolytic activity (concentration of peptide needed to kill 10% of red blood cells) per entry
Use µmol/L as the unit, but write only the number.

Worked examples follow.
input: Fill blank: measured Hemolytic activity (concentration of peptide needed to kill 10% of red blood cells) of the substance GLLKRIKTLL-NH2 [Anoplin, reference compound] is ____.
output: 50

input: Please give the measured Hemolytic activity (concentration of peptide needed to kill 10% of red blood cells) for this substance: FLGTLWGGAKGVF-NH2 [VP]
output: 100

input: I'd like to know its Hemolytic activity (concentration of peptide needed to kill 10% of red blood cells). The substance in question is FLGAIGNVLKSIL-NH2 [TV]
output: 0.2

Continuing:
input: Quick one: Hemolytic activity (concentration of peptide needed to kill 10% of red blood cells) for ILGAILNVLKSLG-NH2 [PV] ?
output: 25

Origin of values: paper PMC10587126
